Data origin, for the record: ChEMBL document CHEMBL1773015

Test system: Pseudomonas aeruginosa
Assay: Binding affinity to Pseudomonas aeruginosa NCTC 10662 nitroreductase assessed as fluorescent colonies after 24 hrs by fluorescence staining
The source made the active and inactive calls. The rule behind the calls is not given here.
Readout: Activity

# Compound, Target Entity, Readout, Result
records = [
    ("O=[N+]([O-])c1ccc(Cl)cc1-c1nc2ccccc2s1", "Pseudomonas aeruginosa", "Activity", "Active"),
    ("Cn1c(-c2ccccc2[N+](=O)[O-])nc2ccccc21", "Pseudomonas aeruginosa", "Activity", "inactive"),
    ("COc1cc(-c2nc3ccccc3s2)c([N+](=O)[O-])cc1OC", "Pseudomonas aeruginosa", "Activity", "Active"),
    ("O=[N+]([O-])c1ccc(F)cc1-c1nc2ccccc2s1", "Pseudomonas aeruginosa", "Activity", "inactive"),
    ("O=[N+]([O-])c1ccccc1-c1nc2ccccc2o1", "Pseudomonas aeruginosa", "Activity", "Active"),
    ("O=[N+]([O-])c1ccc(Cl)cc1-c1nc2ccccc2o1", "Pseudomonas aeruginosa", "Activity", "Active"),
    ("O=[N+]([O-])c1ccc(F)cc1-c1nc2ccccc2o1", "Pseudomonas aeruginosa", "Activity", "inactive"),
    ("O=[N+]([O-])c1ccccc1-c1nc2ccccc2s1", "Pseudomonas aeruginosa", "Activity", "inactive"),
]
